conditions: in ethanol, 313.15 K
assayReadout: solubility (mole fraction)
Lab note: write the figure by itself, no unit.

QUERY: Query: solubility (mole fraction); subject: `CS(=O)(=O)c1ccc(C(=O)C2C(=O)CCCC2=O)c([N+](=O)[O-])c1`
RESULT: 0.00627

====

conditions: in n-butyl acetate, 288.15 K
assayReadout: solubility (mole fraction)
Lab note: write the figure by itself, no unit.

QUERY: I am curious: what solubility (mole fraction) value has been reported for `CS(=O)(=O)c1ccc(C(=O)C2C(=O)CCCC2=O)c([N+](=O)[O-])c1` ?
RESULT: 0.000529

====

settings: in MTBE, 303.15 K
assayReadout: solubility (mole fraction)

QUERY: Look at this molecule and give its reported solubility (mole fraction). `CS(=O)(=O)c1ccc(C(=O)C2C(=O)CCCC2=O)c([N+](=O)[O-])c1`
RESULT: 0.000397

====

conditions: in n-butanol, 283.15 K
assayReadout: solubility (mole fraction)

QUERY: Quick one: solubility (mole fraction) for `CS(=O)(=O)c1ccc(C(=O)C2C(=O)CCCC2=O)c([N+](=O)[O-])c1` ?
RESULT: 0.000708

====

conditions: in 2-pentanol, 313.15 K
assayReadout: solubility (mole fraction)

QUERY: Dear colleague, I am looking for the recorded solubility (mole fraction) of the following compound: `CS(=O)(=O)c1ccc(C(=O)C2C(=O)CCCC2=O)c([N+](=O)[O-])c1`
RESULT: 0.00396

====

conditions: in 2-pentanol, 283.15 K
assayReadout: solubility (mole fraction)
Write no unit; give the number alone.

QUERY: If you can, please state the reported solubility (mole fraction) value of `CS(=O)(=O)c1ccc(C(=O)C2C(=O)CCCC2=O)c([N+](=O)[O-])c1` .
RESULT: 0.000571

====

conditions: in n-pentanol, 288.15 K
assayReadout: solubility (mole fraction)

QUERY: # lookup: solubility (mole fraction) of `CS(=O)(=O)c1ccc(C(=O)C2C(=O)CCCC2=O)c([N+](=O)[O-])c1`
RESULT: 0.000889

====

details: in MTBE, 288.15 K
assayReadout: solubility (mole fraction)
Output: the number by itself.

QUERY: # lookup: solubility (mole fraction) of `CS(=O)(=O)c1ccc(C(=O)C2C(=O)CCCC2=O)c([N+](=O)[O-])c1`
RESULT: 0.000282

====

conditions: in methanol, 303.15 K
assayReadout: solubility (mole fraction)
I only need the number, thanks.

QUERY: Look up solubility (mole fraction) for this compound: `CS(=O)(=O)c1ccc(C(=O)C2C(=O)CCCC2=O)c([N+](=O)[O-])c1`
RESULT: 0.00567

====

settings: in sec-butanol, 298.15 K
assayReadout: solubility (mole fraction)
Write no unit; give the number alone.

QUERY: Would you kindly share the measured solubility (mole fraction) for `CS(=O)(=O)c1ccc(C(=O)C2C(=O)CCCC2=O)c([N+](=O)[O-])c1` ?
RESULT: 0.00108

====

conditions: in n-butyl acetate, 323.15 K
assayReadout: solubility (mole fraction)
Quick one: just the number, no unit, thanks!

QUERY: # get_value(readout='solubility (mole fraction)', item= `CS(=O)(=O)c1ccc(C(=O)C2C(=O)CCCC2=O)c([N+](=O)[O-])c1` )
RESULT: 0.00231

====

conditions: in ethyl acetate, 303.15 K
assayReadout: solubility (mole fraction)
Output: the number by itself.

QUERY: Param item = `CS(=O)(=O)c1ccc(C(=O)C2C(=O)CCCC2=O)c([N+](=O)[O-])c1` ; retrieve measured solubility (mole fraction).
RESULT: 0.00132

====

settings: in n-butyl acetate, 298.15 K
assayReadout: solubility (mole fraction)

QUERY: Would you kindly share the measured solubility (mole fraction) for `CS(=O)(=O)c1ccc(C(=O)C2C(=O)CCCC2=O)c([N+](=O)[O-])c1` ?
RESULT: 0.000829

====

conditions: in sec-butanol, 313.15 K
assayReadout: solubility (mole fraction)
Respond with the number and no other words.

QUERY: Using the record for `CS(=O)(=O)c1ccc(C(=O)C2C(=O)CCCC2=O)c([N+](=O)[O-])c1` , report its solubility (mole fraction).
RESULT: 0.00307

====

settings: in n-butanol, 303.15 K
assayReadout: solubility (mole fraction)

QUERY: What value of solubility (mole fraction) has been recorded for this entry: `CS(=O)(=O)c1ccc(C(=O)C2C(=O)CCCC2=O)c([N+](=O)[O-])c1`
RESULT: 0.00273

====

conditions: in MTBE, 318.15 K
assayReadout: solubility (mole fraction)

QUERY: Look up solubility (mole fraction): `CS(=O)(=O)c1ccc(C(=O)C2C(=O)CCCC2=O)c([N+](=O)[O-])c1`
RESULT: 0.000606

====

details: in methanol, 313.15 K
assayReadout: solubility (mole fraction)
Answer with a bare number; do not write a unit.

QUERY: Report solubility (mole fraction) for `CS(=O)(=O)c1ccc(C(=O)C2C(=O)CCCC2=O)c([N+](=O)[O-])c1` please.
RESULT: 0.00748

====

conditions: in methyl acetate, 293.15 K
assayReadout: solubility (mole fraction)
// keep it numeric: no unit symbol after the value

QUERY: Suppose we examine the compound `CS(=O)(=O)c1ccc(C(=O)C2C(=O)CCCC2=O)c([N+](=O)[O-])c1` ; what solubility (mole fraction) value has been reported?
RESULT: 0.00173

====

details: in n-butyl acetate, 318.15 K
assayReadout: solubility (mole fraction)

QUERY: Please look up its solubility (mole fraction): `CS(=O)(=O)c1ccc(C(=O)C2C(=O)CCCC2=O)c([N+](=O)[O-])c1`
RESULT: 0.0019

====

conditions: in sec-butanol, 293.15 K
assayReadout: solubility (mole fraction)
Could you respond with only the numeric value?

QUERY: # lookup: solubility (mole fraction) of `CS(=O)(=O)c1ccc(C(=O)C2C(=O)CCCC2=O)c([N+](=O)[O-])c1`
RESULT: 0.000745

====

conditions: in methyl acetate, 318.15 K
assayReadout: solubility (mole fraction)

QUERY: Data request, read-out solubility (mole fraction), for `CS(=O)(=O)c1ccc(C(=O)C2C(=O)CCCC2=O)c([N+](=O)[O-])c1`
RESULT: 0.0033

====

conditions: in methanol, 293.15 K
assayReadout: solubility (mole fraction)
The answer should be a number; do not append a unit.

QUERY: Recorded solubility (mole fraction) of `CS(=O)(=O)c1ccc(C(=O)C2C(=O)CCCC2=O)c([N+](=O)[O-])c1` , please.
RESULT: 0.00457

====

settings: in ethanol, 298.15 K
assayReadout: solubility (mole fraction)
The answer should be written as a number, with no unit following it.

QUERY: Returns the measured solubility (mole fraction) for the input molecule. Input: `CS(=O)(=O)c1ccc(C(=O)C2C(=O)CCCC2=O)c([N+](=O)[O-])c1`
RESULT: 0.00386

====

conditions: in sec-butanol, 318.15 K
assayReadout: solubility (mole fraction)
// keep it numeric: no unit symbol after the value

QUERY: Name the reported solubility (mole fraction) value associated with the molecule `CS(=O)(=O)c1ccc(C(=O)C2C(=O)CCCC2=O)c([N+](=O)[O-])c1`
RESULT: 0.00425

====

conditions: in ethanol, 293.15 K
assayReadout: solubility (mole fraction)
Reply with the value as a number alone.

QUERY: Please give the measured solubility (mole fraction) for this molecule: `CS(=O)(=O)c1ccc(C(=O)C2C(=O)CCCC2=O)c([N+](=O)[O-])c1`
RESULT: 0.00316

====

details: in n-propanol, 283.15 K
assayReadout: solubility (mole fraction)
Number only, please.

QUERY: # query: solubility (mole fraction) of entry `CS(=O)(=O)c1ccc(C(=O)C2C(=O)CCCC2=O)c([N+](=O)[O-])c1`
RESULT: 0.0013

====

settings: in cyclohexane, 298.15 K
assayReadout: solubility (mole fraction)

QUERY: Name the reported solubility (mole fraction) value associated with the compound `CS(=O)(=O)c1ccc(C(=O)C2C(=O)CCCC2=O)c([N+](=O)[O-])c1`
RESULT: 0.000616

====

conditions: in methyl acetate, 303.15 K
assayReadout: solubility (mole fraction)
Reply with the value as a number alone.

QUERY: Fill in the blank: the reported solubility (mole fraction) of `CS(=O)(=O)c1ccc(C(=O)C2C(=O)CCCC2=O)c([N+](=O)[O-])c1` is ____.
RESULT: 0.00225

====

conditions: in n-butanol, 318.15 K
assayReadout: solubility (mole fraction)
Just the number, please, no unit attached.

QUERY: Fill blank: measured solubility (mole fraction) of the molecule `CS(=O)(=O)c1ccc(C(=O)C2C(=O)CCCC2=O)c([N+](=O)[O-])c1` is ____.
RESULT: 0.00601

====

conditions: in 2-pentanol, 318.15 K
assayReadout: solubility (mole fraction)
Give only the figure.

QUERY: # input compound: `CS(=O)(=O)c1ccc(C(=O)C2C(=O)CCCC2=O)c([N+](=O)[O-])c1` ; wanted: its solubility (mole fraction)
RESULT: 0.00561
